Source: a collection of fitness landscapes (doi:10.1126/science.1257360)

B1: PhoQ; a variant is named by its letters at X, in order, P23837 (parent)
chain: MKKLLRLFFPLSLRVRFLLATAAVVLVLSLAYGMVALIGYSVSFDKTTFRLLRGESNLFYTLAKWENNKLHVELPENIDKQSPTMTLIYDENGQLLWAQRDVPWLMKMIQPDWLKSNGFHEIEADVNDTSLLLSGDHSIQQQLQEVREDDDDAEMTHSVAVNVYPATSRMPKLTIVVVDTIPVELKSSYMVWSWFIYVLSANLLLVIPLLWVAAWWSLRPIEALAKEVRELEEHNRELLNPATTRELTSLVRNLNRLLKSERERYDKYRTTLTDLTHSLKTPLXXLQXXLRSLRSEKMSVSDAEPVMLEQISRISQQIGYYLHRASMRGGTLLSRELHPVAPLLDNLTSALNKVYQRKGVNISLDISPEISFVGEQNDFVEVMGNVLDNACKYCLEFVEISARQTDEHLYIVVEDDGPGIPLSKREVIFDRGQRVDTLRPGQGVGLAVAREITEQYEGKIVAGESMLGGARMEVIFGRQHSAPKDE

Variants of: B1
Assay: enrichment ratio after two sorts for PhoP signalling (ratio (wild type AVST 3.29)); higher = more functional
Conditions: with PhoP (E. coli)
In all, about 140,000 sequences were measured (“enrichment ratio after two sorts for PhoP signalling”: median about 0, highest 2% from about 11 on). The entries come from a sample that favours the highest values as a whole.
For each of the variants below, state its enrichment ratio.

Entry under test: YAID . Its enrichment ratio was ≤ 0.25

Reported enrichment ratio for TPNM was ≤ 0.25

Value of measured enrichment ratio for the entry ATME : 7.5

enrichment ratio recorded for this variant, AAMY , is ≤ 0.25

// enrichment ratio value for AGTH : 5.3

Consider WRFK . Its measured enrichment ratio is ≤ 0.25

The recorded enrichment ratio for RVVQ is ≤ 0.25

AAME yielded enrichment ratio of 30.8

For PKLW the variant record lists enrichment ratio as ≤ 0.25

The value of enrichment ratio measured for the variant QNYN turned out to be ≤ 0.25

enrichment ratio reading for NMSA : ≤ 0.25

So, TDME ? Its enrichment ratio was 11.5

Recorded result, RGTI , enrichment ratio: ≤ 0.25

KSTI yielded enrichment ratio of ≤ 0.25

The variant AIME showed enrichment ratio equal to 1.65

// enrichment ratio lookup, variant = TGTI , result: 13.2

Form: variant = LTMM ; enrichment ratio = 2.28

Lookup result for NHME ; measured enrichment ratio: ≤ 0.25

The variant identified as AGTK registered its enrichment ratio at ≤ 0.25

The variant listed as AAPE shows enrichment ratio equal to ≤ 0.25

Sample ARIW ; enrichment ratio observed: ≤ 0.25

In plain terms, KAMM has a documented enrichment ratio of ≤ 0.25
